This collection of values is drawn from paper PMC10198994.

Experiment: Static equilibrium solubility of HCQS in supercritical carbon dioxide (UV-vis spectrophotometer)
Assay type: physicochemical
Details: supercritical carbon dioxide (scCO2) in an equilibrium cell, thermodynamic from solid, scCO2, 308 K, 270 bar; read-out: Equilibrium solubility, S
Where a name gives a salt, the structure may show the parent alone.
measure: solubility thermodynamic at 1 h

**Q:** Quick one: solubility thermodynamic at 1 h of CCN(CCO)CCCC(C)Nc1ccnc2cc(Cl)ccc12 (stereo not shown) [HCQS, Hydroxychloroquine sulfate] ?
**A:** 132 µg/mL

====

Experiment: Static equilibrium solubility of HCQS in supercritical carbon dioxide (UV-vis spectrophotometer)
Format: physicochemical
Conditions: thermodynamic from solid, scCO2, 338 K, 120 bar; read-out: Equilibrium solubility, S
Structures can show the parent of a compound that is named as a salt.
measure: solubility thermodynamic at 1 h (mg/mL)
Numbers only; they are read as mg/mL.

**Q:** Quick one: solubility thermodynamic at 1 h of CCN(CCO)CCCC(C)Nc1ccnc2cc(Cl)ccc12 (stereo not shown) [HCQS, Hydroxychloroquine sulfate] ?
**A:** 0.0534
